Data origin, for the record: ChEMBL document CHEMBL3526112

assayProcedure: Renal clearance in Sprague-Dawley rat at 800 mg/kg, iv
Format: ADME, organism-based, Kidney
Set-up: dose 800 mg/kg, route intravenous
protocolConditions: in vivo
propertyLabel: CL renal (mL/min/kg)

>  <compound>
O=C([O-])CCCO.[Na+] [SODIUM OXYBATE]

>  <propertyLabel>
CL renal

>  <unitText>
mL/min/kg

>  <endpointValue>
2.18

$$$$

###

assayProcedure: Cmax in Sprague-Dawley rat extracellular fluid of brain at 400 mg/kg, iv
Format: ADME, organism-based
Parameters: dose 400 mg/kg, route intravenous
protocolConditions: in vivo

>  <compound>
O=C([O-])CCCO.[Na+] [SODIUM OXYBATE]

>  <Cmax, µM>
390

$$$$

###

assayProcedure: Cmax in Sprague-Dawley rat extracellular fluid of brain at 600 mg/kg, iv
Format: ADME, organism-based
Parameters: dose 600 mg/kg, route intravenous
protocolConditions: in vivo
propertyLabel: Cmax (µM)

>  <molecule>
O=C([O-])CCCO.[Na+] [SODIUM OXYBATE]

>  <propertyLabel>
Cmax

>  <unitText>
µM

>  <endpointValue>
550

$$$$

###

assayProcedure: Tmax in Sprague-Dawley rat plasma at 600 mg/kg, iv
Format: ADME, organism-based
Design: dose 600 mg/kg, route intravenous
propertyLabel: Tmax (min)

>  <molecule>
O=C([O-])CCCO.[Na+] [SODIUM OXYBATE]

>  <propertyLabel>
Tmax

>  <endpointValue>
5

$$$$

###

assayProcedure: Ratio of extracellular fluid of brain AUC to plasma AUC in Sprague-Dawley rat at 400 mg/kg, iv
Format: ADME, organism-based
Set-up: dose 400 mg/kg, route intravenous
protocolConditions: read-out: Ratio AUC

>  <compound>
O=C([O-])CCCO.[Na+] [SODIUM OXYBATE]

>  <Kp>
0.079

$$$$

###

assayProcedure: Renal clearance in Sprague-Dawley rat at 600 mg/kg, iv
Format: ADME, organism-based, Kidney
Design: dose 600 mg/kg, route intravenous
protocolConditions: in vivo
propertyLabel: CL renal (mL/min/kg)

>  <compound>
O=C([O-])CCCO.[Na+] [SODIUM OXYBATE]

>  <endpointValue>
1.41

$$$$

###

assayProcedure: Tmax in Sprague-Dawley rat extracellular fluid of brain at 800 mg/kg, iv
Format: ADME, organism-based
Set-up: dose 800 mg/kg, route intravenous
propertyLabel: Tmax (min)

>  <molecule>
O=C([O-])CCCO.[Na+] [SODIUM OXYBATE]

>  <propertyLabel>
Tmax

>  <endpointValue>
50

$$$$

###

Tested on: Plasma
assayProcedure: Cmax in Sprague-Dawley rat plasma at 800 mg/kg, iv after 30 to 180 mins
Type: ADME, organism-based
Parameters: dose 800 mg/kg, route intravenous
protocolConditions: in vivo
propertyLabel: Cmax

>  <molecule>
O=C([O-])CCCO.[Na+] [SODIUM OXYBATE]

>  <endpointValue>
3400 µM

$$$$

###

assayProcedure: Renal clearance in Sprague-Dawley rat at 400 mg/kg, iv
Type: ADME, organism-based, Kidney
Parameters: dose 400 mg/kg, route intravenous
protocolConditions: in vivo
propertyLabel: CL renal

>  <compound>
O=C([O-])CCCO.[Na+] [SODIUM OXYBATE]

>  <endpointValue>
1.55 mL/min/kg

$$$$
